molecular target: Mu-type opioid receptor (Homo sapiens, UniProt P35372); test: Agonist activity at mu opioid receptor (unknown origin) expressed in HEK293-A cells assessed as inhibition of forskolin-stimulated cAMP accumulation incubated for 30 mins by competition PKA binding assay
READOUT_KIND: pEC50
Friendly reminder that pEC50 comes from taking -log10 of the concentration in mol/L.

Some compounds with known pEC50 results, for comparison:
N=C(N)NCCC[C@H](NC(=O)[C@H](CCC(N)=O)NC(=O)[C@@H]1CCCN1C(=O)[C@H](CS)NC(=O)[C@H](Cc1ccccc1)NC(=O)CNC(=O)[C@H](CS)NC(=O)[C@@H](N)Cc1ccc(O)cc1)C(=O)N[C@@H](Cc1ccccc1)C(N)=O 5.81
N=C(N)NCCC[C@H](NC(=O)[C@H](CCC(N)=O)NC(=O)[C@@H]1CCCN1C(=O)[C@H]1CSSC[C@H](NC(=O)[C@@H](N)Cc2ccc(O)cc2)C(=O)NCC(=O)N[C@@H](Cc2ccccc2)C(=O)N1)C(=O)N[C@@H](Cc1ccccc1)C(N)=O 5.42
N=C(N)NCCC[C@H](NC(=O)[C@H](CCC(N)=O)NC(=O)[C@@H]1CCCN1C(=O)[C@@H]1CSSC[C@@H](NC(=O)[C@@H](N)Cc2ccc(O)cc2)C(=O)NCC(=O)N[C@@H](Cc2ccccc2)C(=O)N1)C(=O)N[C@@H](Cc1ccccc1)C(N)=O 7.37
N=C(N)NCCC[C@H](NC(=O)[C@H](CCC(N)=O)NC(=O)[C@@H]1CCCN1C(=O)[C@H](CS)NC(=O)[C@H](Cc1ccccc1)NC(=O)CNC(=O)[C@@H](CS)NC(=O)[C@@H](N)Cc1ccc(O)cc1)C(=O)N[C@@H](Cc1ccccc1)C(N)=O 6.66
N=C(N)NCCC[C@H](NC(=O)[C@H](CCC(N)=O)NC(=O)[C@@H]1CCCN1C(=O)[C@@H](CS)NC(=O)[C@H](Cc1ccccc1)NC(=O)CNC(=O)[C@H](CS)NC(=O)[C@@H](N)Cc1ccc(O)cc1)C(=O)N[C@@H](Cc1ccccc1)C(N)=O 6.75

Ask: Could you share which pEC50 value was measured for "N=C(N)NCCC[C@H](NC(=O)[C@H](CCC(N)=O)NC(=O)[C@@H]1CCCN1C(=O)[C@H]1CSSC[C@@H](NC(=O)[C@@H](N)Cc2ccc(O)cc2)C(=O)NCC(=O)N[C@@H](Cc2ccccc2)C(=O)N1)C(=O)N[C@@H](Cc1ccccc1)C(N)=O" ?
Result: 6.71

Ask: Could you share which pEC50 value was measured for "N=C(N)NCCC[C@H](NC(=O)[C@H](CCC(N)=O)NC(=O)[C@@H]1CCCN1C(=O)[C@@H](CS)NC(=O)[C@H](Cc1ccccc1)NC(=O)CNC(=O)[C@@H](CS)NC(=O)[C@@H](N)Cc1ccc(O)cc1)C(=O)N[C@@H](Cc1ccccc1)C(N)=O" ?
Result: 6.77

Ask: Could you share which pEC50 value was measured for "N=C(N)NCCC[C@H](NC(=O)[C@H](CCC(N)=O)NC(=O)[C@@H]1CCCN1C(=O)[C@@H]1CSSC[C@H](NC(=O)[C@@H](N)Cc2ccc(O)cc2)C(=O)NCC(=O)N[C@@H](Cc2ccccc2)C(=O)N1)C(=O)N[C@@H](Cc1ccccc1)C(N)=O" ?
Result: 6.10

###

biological target: Neuropeptide FF receptor 2 (Homo sapiens, UniProt Q9Y5X5); test: Agonist activity at NPFFR2 (unknown origin) expressed in HEK293-A cells assessed as inhibition of forskolin-stimulated cAMP accumulation incubated for 30 mins by competition PKA binding assay relative to control; assay type: functional, cell-based; details: filed as agonist
READOUT_KIND: Emax (%)
State the answer as a number, implicitly in %.

Some molecules with known Emax results, for comparison:
N=C(N)NCCC[C@H](NC(=O)[C@H](CCC(N)=O)NC(=O)[C@@H]1CCCN1C(=O)[C@H]1CSSC[C@@H](NC(=O)[C@@H](N)Cc2ccc(O)cc2)C(=O)NCC(=O)N[C@@H](Cc2ccccc2)C(=O)N1)C(=O)N[C@@H](Cc1ccccc1)C(N)=O 74.6
N=C(N)NCCC[C@H](NC(=O)[C@H](CCC(N)=O)NC(=O)[C@@H]1CCCN1C(=O)[C@H]1CSSC[C@H](NC(=O)[C@@H](N)Cc2ccc(O)cc2)C(=O)NCC(=O)N[C@@H](Cc2ccccc2)C(=O)N1)C(=O)N[C@@H](Cc1ccccc1)C(N)=O 61.6
N=C(N)NCCC[C@H](NC(=O)[C@H](CCC(N)=O)NC(=O)[C@@H]1CCCN1C(=O)[C@@H]1CSSC[C@H](NC(=O)[C@@H](N)Cc2ccc(O)cc2)C(=O)NCC(=O)N[C@@H](Cc2ccccc2)C(=O)N1)C(=O)N[C@@H](Cc1ccccc1)C(N)=O 79.6
N=C(N)NCCC[C@H](NC(=O)[C@H](CCC(N)=O)NC(=O)[C@@H]1CCCN1C(=O)[C@@H](CS)NC(=O)[C@H](Cc1ccccc1)NC(=O)CNC(=O)[C@H](CS)NC(=O)[C@@H](N)Cc1ccc(O)cc1)C(=O)N[C@@H](Cc1ccccc1)C(N)=O 55.1
N=C(N)NCCC[C@H](NC(=O)[C@H](CCC(N)=O)NC(=O)[C@@H]1CCCN1C(=O)[C@@H](CS)NC(=O)[C@H](Cc1ccccc1)NC(=O)CNC(=O)[C@@H](CS)NC(=O)[C@@H](N)Cc1ccc(O)cc1)C(=O)N[C@@H](Cc1ccccc1)C(N)=O 58.4

Ask: Could you share which Emax value was measured for "N=C(N)NCCC[C@H](NC(=O)[C@H](CCC(N)=O)NC(=O)[C@@H]1CCCN1C(=O)[C@@H]1CSSC[C@@H](NC(=O)[C@@H](N)Cc2ccc(O)cc2)C(=O)NCC(=O)N[C@@H](Cc2ccccc2)C(=O)N1)C(=O)N[C@@H](Cc1ccccc1)C(N)=O" ?
Result: 53.3

Ask: Could you share which Emax value was measured for "N=C(N)NCCC[C@H](NC(=O)[C@H](CCC(N)=O)NC(=O)[C@@H]1CCCN1C(=O)[C@H](CS)NC(=O)[C@H](Cc1ccccc1)NC(=O)CNC(=O)[C@H](CS)NC(=O)[C@@H](N)Cc1ccc(O)cc1)C(=O)N[C@@H](Cc1ccccc1)C(N)=O" ?
Result: 62.9

Ask: Could you share which Emax value was measured for "N=C(N)NCCC[C@H](NC(=O)[C@H](CCC(N)=O)NC(=O)[C@@H]1CCCN1C(=O)[C@H](CS)NC(=O)[C@H](Cc1ccccc1)NC(=O)CNC(=O)[C@@H](CS)NC(=O)[C@@H](N)Cc1ccc(O)cc1)C(=O)N[C@@H](Cc1ccccc1)C(N)=O" ?
Result: 46.6

###

target: Kappa-type opioid receptor (Homo sapiens); assay: Agonist activity at kappa opioid receptor (unknown origin) expressed in HEK293-A cells assessed as inhibition of forskolin-stimulated cAMP accumulation incubated for 30 mins by competition PKA binding assay; format: functional, cell-based; details: read-out: EC50
READOUT_KIND: pEC50
Friendly reminder that pEC50 comes from taking -log10 of the concentration in mol/L.

Some molecules with known pEC50 results, for comparison:
N=C(N)NCCC[C@H](NC(=O)[C@H](CCC(N)=O)NC(=O)[C@@H]1CCCN1C(=O)[C@@H]1CSSC[C@@H](NC(=O)[C@@H](N)Cc2ccc(O)cc2)C(=O)NCC(=O)N[C@@H](Cc2ccccc2)C(=O)N1)C(=O)N[C@@H](Cc1ccccc1)C(N)=O 6.06
N=C(N)NCCC[C@H](NC(=O)[C@H](CCC(N)=O)NC(=O)[C@@H]1CCCN1C(=O)[C@@H](CS)NC(=O)[C@H](Cc1ccccc1)NC(=O)CNC(=O)[C@H](CS)NC(=O)[C@@H](N)Cc1ccc(O)cc1)C(=O)N[C@@H](Cc1ccccc1)C(N)=O 7.12

Ask: Could you share which pEC50 value was measured for "N=C(N)NCCC[C@H](NC(=O)[C@H](CCC(N)=O)NC(=O)[C@@H]1CCCN1C(=O)[C@H]1CSSC[C@H](NC(=O)[C@@H](N)Cc2ccc(O)cc2)C(=O)NCC(=O)N[C@@H](Cc2ccccc2)C(=O)N1)C(=O)N[C@@H](Cc1ccccc1)C(N)=O" ?
Result: 6.13

Ask: Could you share which pEC50 value was measured for "N=C(N)NCCC[C@H](NC(=O)[C@H](CCC(N)=O)NC(=O)[C@@H]1CCCN1C(=O)[C@@H]1CSSC[C@H](NC(=O)[C@@H](N)Cc2ccc(O)cc2)C(=O)NCC(=O)N[C@@H](Cc2ccccc2)C(=O)N1)C(=O)N[C@@H](Cc1ccccc1)C(N)=O" ?
Result: 6.51

###

tested on: Mus musculus; experiment: Analgesic activity in Kunming mouse assessed as increase in antinociceptive effect at 0.03 pmol, icv pre-treated with 10 nmol, icv NPFF receptor antagonist RF9 by radiant heat tail flick test; type: functional, organism-based
Activity calls are given as the source filed them. The rule behind the calls is not given here. Non-standard residues stand in square brackets, D forms with d. Residues, ends and D or L forms follow the SMILES beside them.
READOUT_KIND: Activity

Some molecules with known Activity results, for comparison:
MOLECULE	Activity
N=C(N)NCCC[C@H](NC(=O)[C@H](CCC(N)=O)NC(=O)[C@@H]1CCCN1C(=O)[C@H]1CSSC[C@H](NC(=O)[C@@H](N)Cc2ccc(O)cc2)C(=O)NCC(=O)N[C@@H](Cc2ccccc2)C(=O)N1)C(=O)N[C@@H](Cc1ccccc1)C(N)=O	Active
N=C(N)NCCC[C@H](NC(=O)[C@H](CCC(N)=O)NC(=O)[C@@H]1CCCN1C(=O)[C@@H]1CSSC[C@@H](NC(=O)[C@@H](N)Cc2ccc(O)cc2)C(=O)NCC(=O)N[C@@H](Cc2ccccc2)C(=O)N1)C(=O)N[C@@H](Cc1ccccc1)C(N)=O	Active
C[C@@H](NC(=O)[C@@H](N)Cc1ccc(O)cc1)C(=O)NCC(=O)N[C@@H](Cc1ccccc1)C(=O)N[C@@H](CCC(N)=O)C(=O)N1CCC[C@H]1C(=O)N[C@@H](CCC(N)=O)C(=O)N[C@@H](CCCNC(=N)N)C(=O)N[C@@H](Cc1ccccc1)C(N)=O (H-Y[dA]GFQPQRF-NH2)	Active
N=C(N)NCCC[C@H](NC(=O)[C@H](CCC(N)=O)NC(=O)[C@@H]1CCCN1C(=O)[C@H](CS)NC(=O)[C@H](Cc1ccccc1)NC(=O)CNC(=O)[C@@H](CS)NC(=O)[C@@H](N)Cc1ccc(O)cc1)C(=O)N[C@@H](Cc1ccccc1)C(N)=O	Active

Ask: Could you share which Activity value was measured for "N=C(N)NCCC[C@H](NC(=O)[C@H](CCC(N)=O)NC(=O)[C@@H]1CCCN1C(=O)[C@@H](CS)NC(=O)[C@H](Cc1ccccc1)NC(=O)CNC(=O)[C@H](CS)NC(=O)[C@@H](N)Cc1ccc(O)cc1)C(=O)N[C@@H](Cc1ccccc1)C(N)=O" ?
Result: Active
